Procedure details: Range-finding PK study, uninfected 8HUM mice, oral rac-PZQ
Type: in vivo, mouse
Run parameters: female, mouse, whole blood; uninfected 8HUM mice; single oral 25 mg/kg rac-PZQ; total blood; n = 2
Known AUC(0-t) of a selection of compounds
Number in ng·h/mL, nothing else.

O=C(C1CCC(O)CC1)N1CC(=O)N2CCc3ccccc3C2C1 (centres unmarked)
19400

Now let's try a different one.
Sample `O=C(C1CCCCC1)N1CC(=O)N2CCc3ccccc3[C@@H]2C1` — what was its AUC(0-t)?
2860

----------
Procedure details: Range-finding PK study, uninfected WT mice, oral rac-PZQ
Run parameters: female, WT (wild-type), mouse, whole blood, 400 mg/kg
Parameter AUC(0-t): see the listing below.
Provide the reading as a plain figure in ng·h/mL.

O=C(C1CCC(O)CC1)N1CC(=O)N2CCc3ccccc3C2C1 (centres unmarked) [4OH-PZQ]
98500

// next entry
Record request: AUC(0-t) value, item O=C(C1CCCCC1)N1CC(=O)N2CCc3ccccc3[C@@H]2C1 [R-PZQ]
12000

----------
Procedure details: PK in S. mansoni infected 8HUM mice, oral rac-PZQ
Assay type: in vivo
Run parameters: female, mouse, whole blood, single oral 200 mg/kg rac-PZQ, total blood, n = 3
Overview of reported AUC(0-t) across a group of molecules:
Numbers only; they are read as µg·h/mL.

O=C(C1CCC(O)CC1)N1CC(=O)N2CCc3ccccc3C2C1 (centres unmarked)
19.4

I have this molecule here, `O=C(C1CCCCC1)N1CC(=O)N2CCc3ccccc3[C@@H]2C1` , and I need its recorded AUC(0-t).
68.3

----------
Recorded Cmax, one value per entry.
Procedure details: Range-finding PK study, uninfected 8HUM mice, oral rac-PZQ
Type: in vivo, mouse
Run parameters: female, mouse, whole blood; uninfected 8HUM mice; single oral 25 mg/kg rac-PZQ; total blood; n = 2
Only the number, expressed in ng/mL, is required.

Returns the measured Cmax for the input compound. Input: `O=C(C1CCCCC1)N1CC(=O)N2CCc3ccccc3[C@@H]2C1`
2210

Suppose we examine the compound O=C(C1CCC(O)CC1)N1CC(=O)N2CCc3ccccc3C2C1 (centres unmarked) ; what Cmax value has been reported?
5360
